Tested on: HL60 tumor cells
Test: AlamarBlue conversion cell proliferation assay, HL60 cell line
Type: cell-based
Conditions: combined with 4 mM metformin, 3 days incubation, read-out: concentration that inhibits the proliferation of cells by approximately 50% when combined with 4 mM metformin, HL60 cell line
# IC50 per entry
Measured Attribute: IC50 (µM)

COC(=O)[C@H]1[C@H]2C[C@@H]3c4[nH]c5cc(OC)ccc5c4CCN3C[C@H]2C[C@@H](OC(=O)c2cc(OC)c(OC(=O)OCc3cc(OC)cc(OC)c3)c(OC)c2)[C@@H]1OC    4
COC(=O)[C@H]1[C@H]2C[C@@H]3c4[nH]c5cc(OC)ccc5c4CCN3C[C@H]2C[C@@H](OC(=O)c2cc(OC)c(OC(=O)OCc3ccc(Cl)cc3)c(OC)c2)[C@@H]1OC    4
CCOC(=O)Oc1c(OC)cc(C(=O)O[C@@H]2C[C@@H]3CN4CCc5c([nH]c6cc(OC(C)=O)ccc56)[C@H]4C[C@@H]3[C@H](C(=O)OC)[C@H]2OC)cc1OC    2
COC(=O)[C@H]1[C@H]2C[C@@H]3c4[nH]c5cc(OC)ccc5c4CCN3C[C@H]2C[C@@H](OC(=O)c2cc(OC)c(OC(=O)OCc3ccc(F)cc3)c(OC)c2)[C@@H]1OC    3
CCOC(=O)Oc1c(OC)cc(C(=O)O[C@@H]2C[C@@H]3CN4CCc5c([nH]c6cc(OC(=O)CNC(C)=O)ccc56)[C@H]4C[C@@H]3[C@H](C(=O)OC)[C@H]2OC)cc1OC    1.5

---

Tested on: HL60 tumor cells
Experiment: AlamarBlue conversion cell proliferation assay, HL60 cell line
Format: cell-based
Conditions: combined with 4 mM metformin, 3 days incubation, read-out: concentration that inhibits the proliferation of cells by approximately 50% when combined with 4 mM metformin, HL60 cell line
Protocol: The in vitro anti-proliferative activity of compounds of formula (I), metformin and combinations thereof is tested in an AlamarBlue conversion cell proliferation assay (Promega) on HL60 tumor cells and the mouse mast cell line 6.5 (Colombi et al., Oncogene 2011, 30:1551-65). […] Plates are incubated for 3 days at 37°, 5% CO2 and proliferation is determined by AlamarBlue staining (0.1 vol % added to cultures and incubated for further 4-5 hours). […]
pIC50: −log10 of the molar value.
# pIC50 per entry
Measured Attribute: pIC50

COC(=O)[C@H]1[C@H]2C[C@@H]3c4[nH]c5cc(OC)ccc5c4CCN3C[C@H]2C[C@@H](OC(=O)c2cc(OC)c(OC(=O)OCc3cccc(Cl)c3)c(OC)c2)[C@@H]1OC [Example 35]    5.70
CCOC(=O)Oc1c(OC)cc(C(=O)O[C@@H]2C[C@@H]3CN4CCc5c([nH]c6cc(OC(=O)CNC(=O)c7ccccc7)ccc56)[C@H]4C[C@@H]3[C@H](C(=O)OC)[C@H]2OC)cc1OC [Example 18]    5.82
COC(=O)[C@H]1[C@H]2C[C@@H]3c4[nH]c5cc(OC)ccc5c4CCN3C[C@H]2C[C@@H](OC(=O)c2cc(OC)c(OC(=O)OCc3cc(F)cc(F)c3)c(OC)c2)[C@@H]1OC [Example 33]    5.70
CCOC(=O)Oc1c(OC)cc(C(=O)O[C@@H]2C[C@@H]3CN4CCc5c([nH]c6cc(OC(=O)c7ccccc7)ccc56)[C@H]4C[C@@H]3[C@H](C(=O)OC)[C@H]2OC)cc1OC [Example 15]    5.70
CCOC(=O)Oc1c(OC)cc(C(=O)O[C@@H]2C[C@@H]3CN4CCc5c([nH]c6cc(O)ccc56)[C@H]4C[C@@H]3[C@H](C(=O)OC)[C@H]2OC)cc1OC [Example 13]    5.70
COC(=O)[C@H]1[C@H]2C[C@@H]3c4[nH]c5cc(OC)ccc5c4CCN3C[C@H]2C[C@@H](OC(=O)c2cc(OC)c(OC(=O)OCc3cccc(Br)c3)c(OC)c2)[C@@H]1OC [Example 31]    5.70
COC(=O)[C@H]1[C@H]2C[C@@H]3c4[nH]c5cc(OC)ccc5c4CCN3C[C@H]2C[C@@H](OC(=O)c2cc(OC)c(OC(=O)OCc3cccnc3)c(OC)c2)[C@@H]1OC [Example 7]    5.70
COC(=O)[C@H]1[C@H]2C[C@@H]3c4[nH]c5cc(OC)ccc5c4CCN3C[C@H]2C[C@@H](OC(=O)c2cc(OC)c(OC(=O)OCc3cc(Cl)cc(Cl)c3)c(OC)c2)[C@@H]1OC [Example 10]    6.00
COC(=O)[C@H]1[C@H]2C[C@@H]3c4[nH]c5cc(OC)ccc5c4CCN3C[C@H]2C[C@@H](OC(=O)c2cc(OC)c(OC(=O)OCc3cccc(C(F)(F)F)c3)c(OC)c2)[C@@H]1OC [Example 32]    5.70
COC(=O)[C@H]1[C@H]2C[C@@H]3c4[nH]c5cc(OC)ccc5c4CCN3C[C@H]2C[C@@H](OC(=O)c2cc(OC)c(OC(=O)OCc3ccc(C(F)(F)F)cc3)c(OC)c2)[C@@H]1OC [Example 38]    5.40
COC(=O)[C@H]1[C@H]2C[C@@H]3c4[nH]c5cc(OC)ccc5c4CCN3C[C@H]2C[C@@H](OC(=O)c2cc(OC)c(OC(=O)OCc3cccc4ccccc34)c(OC)c2)[C@@H]1OC [Example 34]    5.30
